All values here come from patent US9302999B2.

Overview of recorded Plant response rating, Sunflower for various molecules
Test system: common (oilseed) sunflower (Helianthus annuus)
Test: Test C pre-/postemergence: sunflower
Format: in vivo
Details: Preemergence, 250 g ai/ha; scale 0 to 100, 0 no effect, 100 complete control
Just the number.

Take a look at these entries with their results.
{"Item Smiles": "Cc1nn(-c2ccc(F)c(C(F)(F)F)c2)nc1Oc1ccnc(C(F)(F)F)c1", "Measurement Label": "Plant response rating, Sunflower", "Measured": 25}
{"Item Smiles": "Cc1nn(-c2ccc(F)c(F)c2)nc1Oc1ccnc(C(F)(F)F)c1", "Measurement Label": "Plant response rating, Sunflower", "Measured": 25}
{"Item Smiles": "Cc1nn(-c2ccc(F)cc2)nc1Oc1ccnc(C(F)(F)F)c1", "Measurement Label": "Plant response rating, Sunflower", "Measured": 0}

Read the next record carefully.
Challenge: Notebook entry, common (oilseed) sunflower (Helianthus annuus) assay: Plant response rating, Sunflower of `CCOc1nn(-c2ccc(F)cc2)nc1Cc1ccnc(C(F)F)c1` = ?
Response given: 20
